Test system: OVCAR3
Assay: Cell viability after 48-hr treatment (Table 1)
Type: cell-based, human
Details: Homo sapiens, OVCAR-3, XTT assay
Endpoint: IC50 (nM)
The answer is to be given in nM; state only the numeric part.

Name the recorded IC50 for CC(=O)N[C@@H](Cc1ccccc1)C(=O)N1C/C(=C\c2ccc(Cl)c(Cl)c2)C(=O)/C(=C/c2ccc(Cl)c(Cl)c2)C1 [RA190Ac] .
2000

----------
Test system: C33A
Assay: Cell viability after 48-hr treatment (Table 1)
Assay type: cell-based
Conditions: Homo sapiens, C-33-A; 48-hr treatment; XTT assay; read-out: IC50, C33A
pIC50: −log10 of the molar value.
Below, each entry is listed alongside its reported pIC50.

CC(=O)N[C@@H](Cc1ccccc1)C(=O)N1C/C(=C\c2ccc(Cl)c(Cl)c2)C(=O)/C(=C/c2ccc(Cl)c(Cl)c2)C1 [RA190Ac] | < 5.30

Bench note: what pIC50 did CC(C)C[C@H](NC(=O)[C@H](Cc1ccccc1)NC(=O)c1cnccn1)B(O)O [Bortezomib, reference compound] show?
> 5.60

----------
System: SiHa
Assay: Cell viability after 48-hr treatment (Table 1)
Format: cell-based
Settings: Homo sapiens, SiHa; 48-hr treatment; XTT assay; read-out: IC50, SiHa
Items are presented alongside their recorded IC50.
API: value field is a number in µM; no unit string.

CC(C)C[C@H](NC(=O)[C@H](Cc1ccccc1)NC(=O)c1cnccn1)B(O)O [Bortezomib, reference compound] | 1

So what does the record say about IC50 for CC(=O)N[C@@H](Cc1ccccc1)C(=O)N1C/C(=C\c2ccc(Cl)c(Cl)c2)C(=O)/C(=C/c2ccc(Cl)c(Cl)c2)C1 [RA190Ac] ?
1
